B1: 1-phosphatidylinositol 4,5-bisphosphate phosphodiesterase gamma-2, residues 772 to 827; numbered along this chain, P16885 (parent)
chain: RTVKALYDYKAKRSDELSFCRGALIHNVSKEPGGWWKGDYGTRIQQYFPSNYVEDI

variants of: B1; assay: abundance fitness (aPCA) (normalised: wild type 0, dead -1); higher = more abundant; growth selection in yeast, the domain comes from the species named; conditions: Homo sapiens
Label T when abundance fitness >= -0.5; otherwise F.

>>> print(df.to_string())
    variant_identifier  assigned_category
 0                S14G                  T
 1                S50R                  T
 2                D39Q                  F
 3                R21N                  T
 4                G22W                  F
 5                A23D                  T
 6                 D8R                  T
 7                Y40D                  F
 8                K37Y                  T
 9                R43G                  T
10                K30T                  T
11                V53P                  F
12                 Y7A                  T
13                 Y9V                  F
14                Q45G                  T
15                N27L                  F
16                K10R                  T
17                N27Q                  T
18                I25F                  F
19                H26I                  T
20                K30G                  F
